These data points were gathered from paper PMC11191083.

System: E. coli MG1655 + pBGS18 + CTX-M-2
Test: MIC broth microdilution, ceftazidime with or without inhibitor
Type: cell-based, Escherichia coli
Settings: CTX-M-2 (ESBL); inhibitor concentration 16 μg mL^–1
So I've got a bunch of compounds here, and I need their MIC of ceftazidime in the presence of inhibitor values.
Kindly write the number and append the unit.

Task: Supply MIC of ceftazidime in the presence of inhibitor value. Item: CC1(C)[C@H](C(=O)[O-])N2C(=O)/C(=C/c3cc(CCCOC(=O)Cc4ccc(O)c(O)c4)ccn3)[C@H]2S1(=O)=O.[Na+] [Compound 8]
Output: 256 μg mL^–1

Task: Please indicate MIC of ceftazidime in the presence of inhibitor recorded for C[C@]1(COC(=O)c2ccncc2O)[C@H](C(=O)[O-])N2C(=O)/C(=C/c3ccccn3)[C@H]2S1(=O)=O.[Na+] [Compound 7]
Output: 256 μg mL^–1

Task: Item C[C@]1(COC(=O)CCc2ccc(O)c(O)c2)[C@H](C(=O)[O-])N2C(=O)/C(=C/c3ccccn3)[C@H]2S1(=O)=O.[Na+] [Compound 3] : provide MIC of ceftazidime in the presence of inhibitor
Output: 2 μg mL^–1

Task: Provide only the value of recorded MIC of ceftazidime in the presence of inhibitor for C[C@]1(COC(=O)c2cc(Cl)ccc2O)[C@H](C(=O)[O-])N2C(=O)/C(=C/c3ccccn3)[C@H]2S1(=O)=O.[Na+] [Compound 5]
Output: 64 μg mL^–1
